From: the nanobody polyreactivity screen of Harvey et al. (2022)

- procedure.text: yeast display, Sf9 membrane polyspecificity reagent, FACS + sequencing; frameworks hold sequencing errors
endpoint.name: polyreactivity (PSR sort gate)

QVQLVESGGGLVQAGGSLRLSCAASGRIFRIYAMGWNRQAPGKERELVARLTYSGGSTYYADSVKGRFTISRDNAKNTVYLQMNSLKPEDTAVYYCAADWLGYQYGYWGQGTQVTVSS ... low polyreactivity
QVQLVESGGGLVQAGGSLRLSCAASGSTFAKYAMGWYRQAPGKERELVAVITSGGSTYYADSVKGRFTISRDNAKNTVYLQMNSLKPEDTAVYYCAAAVRAWARRYDYWGQGTQVTVSS ... high polyreactivity
QVQLVESGGGLVQAGGSLRLSCAASGRTFFRNAMGWYRQAPGKERELVAAISSSGGSTYADSVKGRFTISRDNAKNTVYLQMNSLKPEVTAVYYCATRFQYTRTWYSRKYDYWGQGTQVTVSS ... high polyreactivity
QVQLVESGGGLVQAGGSLRLSCAASGITFLPYAMGWYRQAPGKERELVAAITRGGGSTYADSVKGRFTISRDNAKNSVYFQMISLKPEDTAVYYCAKLYGRGSWYEDYDYWGQGTQVTVSS ... low polyreactivity
QVQLVESGGGLVQAGGSLRLSCAASGRTFDYYAMGWYRQAPGKERELVAAIRLISGNRYYADSVKGRFTISRDNAKNTVYLQMNSLKPEDTAVYYCAARSDGVPSLYGGMDYWRQGTQVTVSS ... low polyreactivity

Ask: Which measured polyreactivity (PSR sort gate) value corresponds to QVQLVESGGGLVQAGGSLRLSCAASGFTLEFSAMGWYRQAPGKERELVASISSGGRTNYADSVKGRFTISRDNAKNTVYLQMYSLKPVDTAVYYCAAEYRSWGRYRYRFNYWGQGTQVTVSS ?
Reply: high polyreactivity

Ask: Can you check QVQLVESGGGLVQAGGSLRLSCAASGITFYGYAMGWYRQAPGKERELVATISSGGSTNYADSVKGRFTISRDNAKNTVYLQMNSLKPEDTAVYYCNAAPDVNRDYEGSGDYWGQGSQVTVSS next?
Reply: low polyreactivity

---

- procedure.text: yeast display, Sf9 membrane polyspecificity reagent, FACS + sequencing; frameworks hold sequencing errors
endpoint.name: polyreactivity (PSR sort gate)

These recorded examples may help you get a feel for the data.
QVQLVESGGGLVQAGGSLRLSCAASGRTFYDYAMGWYRQAPGKERELVAAISSRGGRTYYADSVKGRFTISRDNAKNTVYLQMNSLKPEDSAVYYCAKVVDYNDRDSWGQGTQVTVSS ... high polyreactivity
QVQLVESGGGLVQAGGSLRLSCAASGFIFVRYAMGWYRQAPGKERELVAAISKSGGRTYYADSVKGRFTISRDNAKNTVYLQMNSLKPEDTAVYYCAAYYYVGRVVSFDYWGQGTQVTVSS ... high polyreactivity
QVQLVESGGGLVQAGGSLRLSCAASGRTLQRNAMGWYRQAPGKERELVADISWSGASTYYADSVKGRFTISRDNAKNTVYLQMNSLKPEDTAVYYCAATYIDRGNIYDYWGQGTQVTVSS ... high polyreactivity
QVQLVESGGGLVQAGGSLRLSCAASGITFDGYAMGWNTQAPGKEREFVAAITWNGGSTYYADSVKGRFTISRDNAKNTVYLQMNSLKPEDTAVYYCNADPFTGYDYWGQGTQVTVSS ... low polyreactivity
QVQLVESGGGLVQAGGSLRLSCAASGSTFPLNVMGWYRQAPGKERELVAAISSAGSTNYADSVKGRFTISRDNAKNTVYLQMNSLKPEDTAVYYCNADVRSTWYWLQYTPIYDYWGQGTQVTVSS ... low polyreactivity

Ask: Request the reported polyreactivity (PSR sort gate) associated with QVQLQESVGGLVQAGGSLLLSCAASGNIFPTDRMGWYRQAPGKELEFVATISHGGSTNYADSVKGRFTISRDNAKNTVYLEMNSLKPEDTAVYYCAVWSLGRWRHYFWGQGTQVTVSS
Reply: low polyreactivity

Ask: Also QVQLVESGGGLDQAGGSLRLSCAASGFIFDYYAMGWYRQAPGKERELVAAISWDGDSTNYADSVKGRFTISRDNAKNTVYLQMNSLKPEDTAVYYCNADEQLVDGWFFRYDYWGQGTQVTVSS , if possible.
Reply: low polyreactivity

---

- procedure.text: yeast display, Sf9 membrane polyspecificity reagent, FACS + sequencing; frameworks hold sequencing errors
endpoint.name: polyreactivity (PSR sort gate)

QVQLVESGGGLVQAGGSLRLSCAASGFIIEAYTMGWYRQAPGKERELVAAITWTGGSTYYADSVKGRFTISRDNAKNTVYLQMNSLKPEDTAVYYCNVPYYSFRELSSYYWGQGTQVTVSS ... high polyreactivity
QVQLVESGGGLVQAGGSLRLSCAASGFIYSGYAIGCYRQAPAKERELVDTNSGSGGSTYYADSVKGRFTISRDNAKNTVYLKMNSLKTEDTAVYYCAARQRGGYGYWGQGTQVTESS ... high polyreactivity
QVQLVESGGGLVQAGGSLRLICAASGRTFRYYAMGWYRQAPGKERELVASISDGGSTNYADSVKGRFTISRDNAKNTVYLQMNSLKPEDTAVYYCNAKAYVWYLYDEFGYWGQGTQVTVSS ... low polyreactivity
QVQLVESGGGLVQAGGSLRLSCAASGSIFYWNAMGWYRQAPGKEREFVADISQSGDSTYYADSVKGRFTISRDNAKNTVYLQMNSLKQEDTAVYYCAAQFLSYAWDYDYWGQGTQVTVSS ... low polyreactivity
QVQLVESGGGLVQAGGSLRLSCAASGSNITYYAMGWYRQAPGKERELVAAINLSGDITYYADSVKGRFTISRDNAKNTVYLQMNSLKPEDTAVYYCAAESASSRPYFNSIHRRDSWGQGTQVTVSS ... low polyreactivity
QVQLVEAGGGLVQAGGSLRLSCAASGIIFGFYAMGWYRQAPGKERELVAAITNDGGNTNYADSVKGRFTISRDNAKNTVYLQMNSLKPEDTAVYYCNADRTQDRTPYTYATFDYWGQGTQVTVSS ... low polyreactivity

Ask: Reported polyreactivity (PSR sort gate) for QVQLVESGGGLVQAGGSLRLTSAASGRIFYNYAIGWYRQAPGKERELVAAISSSGGSTYYADSVKGRFTISRDNAKNTVYVQMNSLKPEDTAVYYCAAYSYGLYYTYDYWGQGTQVTVSS : what is it?
Reply: high polyreactivity

Ask: For QVQLVESGGGLVQAGGSLRLSCAASGRTFSFYAMGWYRQAPGKERELVAGIDWDDGSTSYADSVKGRFTISRDNAKNTVYLQMNSLKPEDTAVYYCAAGPYAGVDPGDYYYWGQGTQVTVSS then?
Reply: low polyreactivity

Ask: Next sequence up: QVQLVESGVGLVQAGGRLRLICAASGSTYDSAMGWYIQAPGKERELVASISWSDSSTYYADSVKGRFTISPDNAKNTVYLQMTSLKPEDSAVYYCNAEQGTRDSDYWGQGTQVTVSS
Reply: low polyreactivity

Ask: Also, QVQLVESGGGLVQAGGSLRLSCAPSGYTYSDYAMGWYRQAPAKERELVAGITGGGGTYYADSVKGRFTISRDNAKNTVYLQMNSLKPEDTAVYYCAAGRRHGFGYWGQGTQVTVSS please.
Reply: low polyreactivity

Ask: Next sequence: QVQLVESGGGLVQAGGSLRLSCAASGFTFRVYAMGWYRQAPGKERELVAVISGTGGRTYYADSVKGRFTISRDIAKNTVYLQMNSLKPEDTAVYYCARRGRPPAIYDYWGQGTQVTVSS
Reply: high polyreactivity

---

- procedure.text: yeast display, Sf9 membrane polyspecificity reagent, FACS + sequencing; frameworks hold sequencing errors
endpoint.name: polyreactivity (PSR sort gate)

QVQLVESGGGLVQAGGSLRLSCAASGIIFAKYAMGWYRQAPGKERELVAAISRSGGSTYYADSVKGRFTISRDNAKNTVYLQMNSLKPEDTAVYYCAAAYYRDGGDFDYWGQGTQVTVSS ... high polyreactivity
QVQLVESGGGLVQAGGSLRLSCAASGSIFQCYTMGWSRQAPGKERELVAAISSTGSTNYADCVMGRFTISLDNAKNTVYLQMNSMNPEDTAVFYCAGVGTYLAGYQFDYWGQGTQVTVSS ... low polyreactivity
QVQLVESGGGLVQAGGSLRLSCAASGSNFSFYAMGWYRQAPGKERELVAAISYSGGSTYYADSVKGRFTISRDNAKNTVYLQINSLKPEDTAVYYCNSDIYRHHGWVPGGYRGQGTQVTVSS ... low polyreactivity
QVQLVESGGGLVQAGGSLRLSCAASGGTFVSYAMGWYRQAPGKERELVAAITYSGGSTYYADSVKGRFTISRDNAKNTVYLQMNSLKPEDTGVYYCAAPKFSYFSYSPRGKFKYEYWGQGTQVTVSS ... low polyreactivity
QVQLVESVGGLVQAGGSLRLSCAASGRIYVYVMGWYIQSPGKERELVAAITSGGSTYYADSVKGRFTISRDNAKNTDYLQMNSLKPEDTAVYYCAADVNGGYDYYYFVSIVYYWGQGTQVTVSS ... low polyreactivity
QVQLVESGGGLVQAGGSLRLSSAANGMIYVSYAMGWYRQAPGKERELVATITRSGGSTYYADSVKGRFTISRDNAKNTVYLQMNSLKPEDTAVYYCARYWRTSGVRMDYWGQGTQVTVSS ... high polyreactivity

# input for lookup
Ask: Please report the recorded polyreactivity (PSR sort gate) for QVQLVESGGGLVQAGGSLRLSCAASGSTFLGNVMGWYRQAPGKERELVAAISRGGSRTYYADSVKGRFTISRDNAKNTVYLQMNSLKPEDTAVYYCAAEPYAASRSGEFNYWGQGTQVTVSS .
Reply: low polyreactivity
